# Tested on: Aerobactin synthetase IucA (Klebsiella pneumoniae hvKP1)
# Experimental details: Biochemical IucA enzyme inhibition primary screen of the Spectrum library (AID 1346200);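 also: 100% = wells without compound and 0% = wells lacking enzyme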
# Study conditions: malachite green pyrophosphate, A620, at 8 µM, stronger effect = lower value
Items are presented alongside their recorded activity remaining.
Endpoint: activity remaining (%)

{"Molecule": "Cc1cc(C(C)(C)CC(C)(C)C)ccc1OCCOCC[N+](C)(C)Cc1ccccc1", "Endpoint": "activity remaining", "Test result": 118}
{"Molecule": "CC(C)C(C)/C=C/C(C)C1CCC2C3=CC=C4CC(O)CCC4(C)C3CCC21C (configuration not stated)", "Endpoint": "activity remaining", "Test result": 111}
{"Molecule": "CCCCCC1C(=O)CCC1CC(=O)OC (configuration not stated)", "Endpoint": "activity remaining", "Test result": 118}
{"Molecule": "CN(C)CCOC(=O)COc1ccc(Cl)cc1", "Endpoint": "activity remaining", "Test result": 124}
{"Molecule": "C=CCc1ccc(OC)cc1", "Endpoint": "activity remaining", "Test result": 107}
{"Molecule": "ClC1C(Cl)C(Cl)C(Cl)C(Cl)C1Cl (configuration not stated)", "Endpoint": "activity remaining", "Test result": 113}
{"Molecule": "Cc1ccc(-c2cc(C(F)(F)F)nn2-c2ccc(S(N)(=O)=O)cc2)cc1", "Endpoint": "activity remaining", "Test result": 95}
{"Molecule": "N=C(N)SCCN", "Endpoint": "activity remaining", "Test result": 98.6}
{"Molecule": "COc1cnc(NS(=O)(=O)c2ccc(N)cc2)nc1", "Endpoint": "activity remaining", "Test result": 113}
{"Molecule": "Nc1ccc(S(=O)(=O)c2ccc(N)cc2)cc1", "Endpoint": "activity remaining", "Test result": 109}
{"Molecule": "CC(=O)O[C@H]1CCC2(C)C3=C(CCC2C1(C)C)[C@@]1(C)CC[C@@H](C(C)CCC=C(C)C)[C@]1(C)CC3 (some centres not stated)", "Endpoint": "activity remaining", "Test result": 109}
{"Molecule": "CC(=O)c1c(O)cc(O)cc1O", "Endpoint": "activity remaining", "Test result": 94.3}
